Assayed Target: human HSP90α (Homo sapiens)
Construct: purchased Stressgen SPP-776F
Assay Explanation: biochemical
Type: binding
Particulars: competition assay; read-out: Measure KD against human HSP90α
Value Type: log10 of Kd (log10 of the value in nM)

Compound | Assayed Target | log10 of Kd
CC1CC=CCCC=CC(=NOCC(=O)N2CCCCC2)Cc2c(Cl)c(O)cc(O)c2C(=O)O1 (centres unmarked) [pochoxime D] | human HSP90α (Homo sapiens) | 1.34
C[C@@H]1C/C=C/[C@H](O)C/C=C/C(=NOCC(=O)N2CCCCC2)Cc2cc(O)cc(O)c2C(=O)O1 [pochoxime F] | human HSP90α (Homo sapiens) | 1.34
C[C@@H]1C/C=C/[C@@H](O)C/C=C/C(=NOCC(=O)N2CCCCC2)Cc2c(Cl)c(O)cc(O)c2C(=O)O1 [epi-pochoxime E] | human HSP90α (Homo sapiens) | 1.58
C[C@@H]1C/C=C/[C@@H](O)C/C=C/C(=NOCC(=O)N2CCCCC2)Cc2cc(O)cc(O)c2C(=O)O1 [epi-pochoxime F] | human HSP90α (Homo sapiens) | 1.15
CC(=O)N[C@H]1/C=C/C[C@@H](C)OC(=O)c2c(O)cc(O)cc2CC(=NOCC(=O)N2CCCCC2)/C=C/C1 [As-15(6-R)] | human HSP90α (Homo sapiens) | 2.54
C[C@@H]1C/C=C/[C@H](O)C/C=C/C(=NOCC(=O)N2CCCCC2)Cc2c(Cl)c(O)cc(O)c2C(=O)O1 [pochoxime E] | human HSP90α (Homo sapiens) | 1.53
CC1CC=CC(N)CC=CC(=NOCC(=O)N2CCCCC2)Cc2cc(O)cc(O)c2C(=O)O1 (stereo not drawn) [epi-aminopochoxime E] | human HSP90α (Homo sapiens) | 1.53
C[C@@H]1C/C=C/[C@H](N)C/C=C/C(=NOCC(=O)N2CCCCC2)Cc2cc(O)cc(O)c2C(=O)O1 [aminopochoxime E] | human HSP90α (Homo sapiens) | 2.36

* * *

Assayed Target: human HSP90α (Homo sapiens, UniProt P07900)
Construct: purchased Stressgen SPP-776F
Assay Explanation: biochemical
Format: binding
Particulars: Measure KD against human HSP90α (nM)

Molecule | Kd [nM]
CC1CC=CC(NC(=O)CSC2OC(CO)C(O)C(O)C2O)CC=CC(=NOCC(=O)N2CCCCC2)Cc2cc(O)cc(O)c2C(=O)O1 (stereo not shown) | 90

* * *

Test system: SKOV-3
Assay Explanation: Proliferation assay in SKOV-3
Type: cell-based
Particulars: Homo sapiens, SK-OV-3, SKOV-3, Ovarian (Her2+)
Experimental: The compounds were dissolved in 100% DMSO to make 10 mM stock solutions. HER2+BT474 breast carcinoma cells were cultured in DMEM/F12 media, supplemented with 10% FBS. Log-phase growing BT474 cells were seeded in 96 well plates at 1.5×10E4 per well. […] Viable cells were measured by detecting luminescence generated from reaction of ATPlite solution and ATP in the cells using a 96-well microplate luminescence reader. Relative luminescence light unit is correlated to the amount of ATP in viable cells. […]
pIC50: −log10 of the molar value.
This section presents compounds with their documented pIC50 values.
Value Type: pIC50

Compound | Value Type | Recorded Result
C[C@@H]1C/C=C/[C@@H](O)C/C=C/C(=N\OCC(=O)N2CCCCC2)Cc2cc(O)cc(O)c2C(=O)O1 [As-10a(6-S)-Z] | pIC50 | 7.60
C[C@@H]1C/C=C/[C@@H](O)C/C=C/C(=N/OCC(=O)N2CCCCC2)Cc2cc(O)cc(O)c2C(=O)O1 [As-10a(6-S)-E] | pIC50 | 7.17
C[C@@H]1C/C=C/[C@@H](O)C/C=C/C(=N/OCC(=O)N2CCCCC2)Cc2c(Cl)c(O)cc(O)c2C(=O)O1 [As-10b(6-S)-E] | pIC50 | 7.35
C[C@@H]1C/C=C/[C@@H](N)C/C=C/C(=N/OCC(=O)N2CCCCC2)Cc2cc(O)cc(O)c2C(=O)O1 | pIC50 | 7.48
